- Tested on: Vero E6 infected with SARS-CoV-2
- assay.notes: morphology score (similarity to uninfected cells); higher = more like uninfected cells
- test.conditions: 24 h
Would you please tag the item 1 when its morphology score is 0.09 or above, and 0 when it is below?

>  <compound>
N#C/C(=C\c1ccc(O)c(O)c1)C(=O)NCc1ccccc1 (10 µM)

>  <class.name>
1

$$$$
>  <compound>
O=C(O)c1cc(=O)c2ccccc2[nH]1 [kynurenic-acid] (10 µM)

>  <class.name>
1

$$$$

Q: Check the entry CC(C)C[C@H](NC(=O)CNC(=O)[C@H](Cc1ccc(O)cc1)NC(=O)[C@H](CO)NC(=O)[C@H](Cc1c[nH]c2ccccc12)NC(=O)[C@H](Cc1cnc[nH]1)NC(=O)[C@@H]1CCC(=O)N1)C(=O)N[C@@H](CCCNC(=N)N)C(=O)N1CCC[C@H]1C(=O)NCC(N)=O [gonadorelin] (10 µM) : does morphology score equal or exceed 0.09?
Ans: 0

Q: Check the entry Nc1ccc([As](=O)(O)O)cc1 [arsanilic-acid] (10 µM) : does morphology score equal or exceed 0.09?
Ans: 0

Q: Check the entry O=C(Nc1ccc(S(=O)(=O)Nc2ccccc2Cl)c(Cl)c1)c1ccccn1 (10 µM) : does morphology score equal or exceed 0.09?
Ans: 0

----------
Property: inhibition of SARS-CoV-2 cytopathic effect; scope: individual compounds
- System: Vero E6 infected with SARS-CoV-2
- assay.notes: inhibition of SARS-CoV-2 cytopathic effect; higher = more antiviral protection, active = above 15
- test.conditions: 10000 nM; 48 h
Respond numerically; units are % and should not be typed.

Would you please look over these solved cases?
>  <compound>
COc1ccc2[nH]c(I)c(CCNC(C)=O)c2c1

>  <measured.on>
Vero E6 infected with SARS-CoV-2

>  <numeric.value>
0.94

$$$$
>  <compound>
CCOC(=O)CNC(=O)[C@@H]1CCCN1C(=O)Cc1ccccc1

>  <measured.on>
Vero E6 infected with SARS-CoV-2

>  <numeric.value>
1.46

$$$$
>  <compound>
C[C@H](CSC(=O)c1ccccc1)C(=O)N1C[C@@H](Sc2ccccc2)C[C@H]1C(=O)O

>  <measured.on>
Vero E6 infected with SARS-CoV-2

>  <numeric.value>
-1.54

$$$$
>  <compound>
C=CC(=O)Nc1cc(Nc2nccc(-c3cn(C)c4ccccc34)n2)c(OC)cc1N(C)CCN(C)C

>  <measured.on>
Vero E6 infected with SARS-CoV-2

>  <numeric.value>
-16.5

$$$$

// moving on: another record for inhibition of SARS-CoV-2 cytopathic effect
For record NC(=O)OCC(O)COc1ccc(Cl)cc1 (stereo not given) [chlorphensin-carbamate] the listed inhibition of SARS-CoV-2 cytopathic effect is 4.44

----------
- Test system: Vero E6 infected with SARS-CoV-2
- assay.notes: SARS-CoV-2 infection rate relative to infected DMSO; higher = more infection, active = 60 or less
- test.conditions: 24 h
readout.kind: SARS-CoV-2 infection rate (%)
Respond numerically; units are % and should not be typed.

Would you please look over these solved cases?
>  <molecule>
COC(=O)Nc1ccc2[nH]cc(CCNC(C)=O)c2c1 (10 µM)

>  <SARS-CoV-2 infection rate [%]>
108

$$$$
>  <molecule>
C=C1CC[C@H](O)C/C1=C/C=C1\CCC[C@]2(C)[C@@H]([C@H](C)CCCC(C)C)CC[C@@H]12 [cholecalciferol] (10 µM)

>  <SARS-CoV-2 infection rate [%]>
96.5

$$$$
>  <molecule>
O=C1[C@@H]2[C@H]3CC[C@H](C3)[C@@H]2C(=O)N1CCCCN1CCN(c2ncccn2)CC1 [tandospirone] (10 µM)

>  <SARS-CoV-2 infection rate [%]>
99

$$$$

For record CC(CCc1ccccc1)NC(C)C(O)c1ccc(O)cc1 (stereo not drawn) [buphenine] (10 µM) the listed SARS-CoV-2 infection rate is 114

For record COc1cc2ncnc(Nc3ccc(F)c(Cl)c3)c2cc1NC(=O)/C=C/CN1CCCCC1 [dacomitinib] (0.833333 µM) the listed SARS-CoV-2 infection rate is 103

For record O=C(Nc1cc(C(F)(F)F)cc(C(F)(F)F)c1)Nc1c(Br)cc(Br)cc1-c1nnn[nH]1 (10 µM) the listed SARS-CoV-2 infection rate is 104

For record CCCCCCCCCCCCC/C=C/[C@@H](O)[C@@H](N)CO[P@](=O)(O)OCC[N+](C)(C)C [sphingosylphosphorylcholine] (10 µM) the listed SARS-CoV-2 infection rate is 112

For record CO[C@H]1/C=C/O[C@@]2(C)Oc3c(C)c(O)c4c(O)c(c(/C=N/N=C/N5CCCCC5)c(O)c4c3C2=O)NC(=O)/C(C)=C\C=C\[C@H](C)[C@H](O)[C@@H](C)[C@@H](O)[C@@H](C)[C@H](OC(C)=O)[C@@H]1C (10 µM) the listed SARS-CoV-2 infection rate is 108

----------
Property: inhibition of SARS-CoV-2 cytopathic effect; scope: individual molecules
- Test system: Vero E6 infected with SARS-CoV-2
- assay.notes: inhibition of SARS-CoV-2 cytopathic effect; higher = more antiviral protection, active = above 15
- test.conditions: 100 nM; 48 h
Respond numerically; units are % and should not be typed.

Would you please look over these solved cases?
>  <record.smiles>
Cc1c(O)c(=O)ccn1C

>  <numeric.value>
1.45

$$$$
>  <record.smiles>
COc1ccc([C@@H]2CC(=O)c3c(O)cc(O)cc3O2)cc1O

>  <numeric.value>
4.54

$$$$
>  <record.smiles>
NCCCCN=C(N)N

>  <numeric.value>
-1.24

$$$$
>  <record.smiles>
COc1cc2c(NC3CCN(C)CC3)nc(N3CCCN(C)CC3)nc2cc1OCCOCCN(C)C

>  <numeric.value>
-0.4

$$$$
>  <record.smiles>
CC(C)(C)/[N+]([O-])=C/c1ccc(S(=O)(=O)O)cc1S(=O)(=O)O

>  <numeric.value>
-0.41

$$$$

// moving on: another record for inhibition of SARS-CoV-2 cytopathic effect
For record `C=CCn1c(=O)c2cnc(Nc3ccc(N4CCN(C)CC4)cc3)nc2n1-c1cccc(C(C)(C)O)n1` the listed inhibition of SARS-CoV-2 cytopathic effect is 0.63

----------
- Test system: Vero E6 infected with SARS-CoV-2
- assay.notes: inhibition of SARS-CoV-2 cytopathic effect; higher = more antiviral protection, active = above 15
- test.conditions: 1 nM; 48 h
readout.kind: inhibition of SARS-CoV-2 cytopathic effect (%)
Respond numerically; units are % and should not be typed.

Would you please look over these solved cases?
>  <compound>
O=c1ccc2ccc(OCCCCN3CCN(c4cccc5sccc45)CC3)cc2[nH]1 [brexpiprazole]

>  <value.unit>
%

>  <numeric.value>
-0.6

$$$$
>  <compound>
Cc1oc(-c2ccccc2)nc1CCC(=O)c1ccc(CC2SC(=O)NC2=O)cc1 (configuration not stated) [darglitazone]

>  <value.unit>
%

>  <numeric.value>
2.44

$$$$
>  <compound>
Cc1csc(S(=O)(=O)N(CC(C)C)c2cc3c(cc2OCc2ccc(C(=O)O)cc2)CCC3)n1

>  <value.unit>
%

>  <numeric.value>
-2.46

$$$$
>  <compound>
O=C(Oc1ccccc1)c1ccccc1O [phenyl-salicylate]

>  <value.unit>
%

>  <numeric.value>
-7.58

$$$$
>  <compound>
CO/N=C1\CN(c2nc3c(cc2F)c(=O)c(C(=O)O)cn3C2CC2)CC1CN (configuration not stated) [gemifloxacin]

>  <value.unit>
%

>  <numeric.value>
-4.74

$$$$
>  <compound>
Cc1cc(-c2nncc3c(C(C)(C)C)c(OCc4ncnn4C)nn23)no1

>  <value.unit>
%

>  <numeric.value>
1.59

$$$$

// moving on: another record for inhibition of SARS-CoV-2 cytopathic effect
For record CCCCCC(=O)O[C@]1(C(C)=O)CC[C@H]2[C@@H]3CCC4=CC(=O)CC[C@]4(C)[C@H]3CC[C@@]21C [17-hydroxyprogesterone-caproate] the listed inhibition of SARS-CoV-2 cytopathic effect is -1.12

----------
- Test system: Vero E6 infected with SARS-CoV-2
- assay.notes: inhibition of SARS-CoV-2 cytopathic effect; higher = more antiviral protection, active = above 15
- test.conditions: 10000 nM; 48 h
readout.kind: inhibition of SARS-CoV-2 cytopathic effect (%)
Respond numerically; units are % and should not be typed.

Would you please look over these solved cases?
>  <compound>
C[C@@H]1CN(c2c(F)c(N)c3c(=O)c(C(=O)O)cn(C4CC4)c3c2F)C[C@H](C)N1 [sparfloxacin]

>  <value.unit>
%

>  <numeric.value>
-2.31

$$$$
>  <compound>
Cc1ccc(S(=O)(=O)c2ccc([N+](=O)[O-])o2)cc1

>  <value.unit>
%

>  <numeric.value>
-21.6

$$$$

// moving on: another record for inhibition of SARS-CoV-2 cytopathic effect
For record `O=C(/C=C/c1ccc2ccc(C(F)(F)F)cc2n1)c1ccncc1` the listed inhibition of SARS-CoV-2 cytopathic effect is 5.19

FYI, the data here is from the supplement of paper PMC13380429.
